These entries and their values trace back to paper PMC9500072.

# measured-target: Human recombinant LOXL2 (Homo sapiens, UniProt Q9Y4K0)
# Construct: purchased R&D Systems
# Sequence (Q9Y4K0 26-774): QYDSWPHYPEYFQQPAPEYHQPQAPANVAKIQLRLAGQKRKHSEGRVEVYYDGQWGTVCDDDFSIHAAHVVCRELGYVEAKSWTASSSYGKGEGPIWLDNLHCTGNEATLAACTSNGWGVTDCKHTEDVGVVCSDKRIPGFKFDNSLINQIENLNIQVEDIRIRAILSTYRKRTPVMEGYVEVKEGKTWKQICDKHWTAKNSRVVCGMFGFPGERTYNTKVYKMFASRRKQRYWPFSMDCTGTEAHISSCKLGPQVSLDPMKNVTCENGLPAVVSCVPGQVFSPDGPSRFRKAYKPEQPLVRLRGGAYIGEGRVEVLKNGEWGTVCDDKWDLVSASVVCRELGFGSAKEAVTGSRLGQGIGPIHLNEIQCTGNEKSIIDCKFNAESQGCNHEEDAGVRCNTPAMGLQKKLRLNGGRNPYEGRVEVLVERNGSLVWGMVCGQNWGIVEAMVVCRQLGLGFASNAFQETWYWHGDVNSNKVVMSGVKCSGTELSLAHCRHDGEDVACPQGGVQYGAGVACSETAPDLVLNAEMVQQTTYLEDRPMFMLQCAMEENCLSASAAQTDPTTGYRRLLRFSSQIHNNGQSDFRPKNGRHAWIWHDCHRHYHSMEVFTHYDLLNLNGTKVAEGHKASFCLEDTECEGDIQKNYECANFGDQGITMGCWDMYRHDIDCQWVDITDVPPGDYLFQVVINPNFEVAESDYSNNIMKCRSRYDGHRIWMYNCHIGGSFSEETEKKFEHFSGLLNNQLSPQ
# assay-remarks: Amplex Red oxidation assay, LOXL2 inhibition
# Type: biochemical
# measurement-parameters: 30 min pre-incubation; read-out: LOXL2 IC50
# Protocol: For compound oxidation assays, the amount of hydrogen peroxide generated at a single concentration (30 µM) of compound relative to DMSO was measured. The measurement of the enzymatic activity of all lysyl oxidase family members was based on the detection of hydrogen peroxide with an Amplex-Red oxidation assay, as previously described; miniaturized in 384 well formats, with the appropriate combination of substrate and assay buffer for each individual enzyme. […]
assay-endpoint: IC50

In [3]: df
Out[3]:
                                   compound  data_value
0                      NC/C(=C\F)COc1ccccc1     8700 nM
1                      NC/C=C(/F)COc1ccccc1     2900 nM
2        NC/C=C(\F)C(F)(F)S(=O)(=O)c1ccccc1      430 nM
3                  NC/C=C(\F)CN1CCc2ccccc21      900 nM
4                      NC/C=C(\F)CSc1ccccc1     1100 nM
5  NC/C(=C/F)CCc1ccc(F)cc1 [Mofegiline, mofegiline, reference compound]  > 10000 nM

---

# measured-target: DAO (Homo sapiens, UniProt P19801)
# Sequence (P19801 20-751): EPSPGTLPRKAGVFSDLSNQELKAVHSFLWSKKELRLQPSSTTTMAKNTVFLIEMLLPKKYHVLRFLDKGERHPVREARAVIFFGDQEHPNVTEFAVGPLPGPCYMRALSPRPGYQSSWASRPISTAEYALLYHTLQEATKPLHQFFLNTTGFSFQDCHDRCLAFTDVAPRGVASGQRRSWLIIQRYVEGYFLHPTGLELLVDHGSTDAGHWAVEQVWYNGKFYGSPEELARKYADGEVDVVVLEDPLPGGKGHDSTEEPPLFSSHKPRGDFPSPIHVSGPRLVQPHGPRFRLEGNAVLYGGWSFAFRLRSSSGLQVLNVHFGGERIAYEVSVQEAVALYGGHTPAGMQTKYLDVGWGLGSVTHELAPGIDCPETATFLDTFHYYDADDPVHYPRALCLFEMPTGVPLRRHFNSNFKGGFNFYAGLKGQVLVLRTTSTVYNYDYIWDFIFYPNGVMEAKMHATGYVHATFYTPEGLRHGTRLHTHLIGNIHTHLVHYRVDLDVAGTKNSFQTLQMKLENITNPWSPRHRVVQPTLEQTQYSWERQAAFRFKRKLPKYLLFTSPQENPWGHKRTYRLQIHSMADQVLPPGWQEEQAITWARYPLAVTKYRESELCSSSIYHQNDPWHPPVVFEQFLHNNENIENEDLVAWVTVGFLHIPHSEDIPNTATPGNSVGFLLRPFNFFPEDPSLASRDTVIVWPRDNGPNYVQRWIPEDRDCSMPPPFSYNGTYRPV
# assay-remarks: Amine oxidase inhibition profile, DAO
# Assay type: biochemical
assay-endpoint: IC50

In [3]: df
Out[3]:
                     structure_string  data_value
0  NC/C=C(\F)C(F)(F)S(=O)(=O)c1ccccc1     > 30 µM

---

# assay-remarks: Caco-2 permeability
# Format: in vitro ADME
# measurement-parameters: human, Caco-2; read-out: CaCo2 permeability Papp
assay-endpoint: Papp (×10⁻⁶ cm/s)

In [3]: df
Out[3]:
                     structure_string  assay_endpoint         uom  data_value
0  NC/C=C(\F)C(F)(F)S(=O)(=O)c1ccccc1            Papp  ×10⁻⁶ cm/s          34
